Measured values drawn from ChEMBL document CHEMBL3856237 for this set.

Tested on: Mus musculus
Assay Method Text: Toxicity in Swiss mouse assessed as effect on spontaneous locomotory activity by measuring number of areas crossed at 100 mg/kg administered via oral gavage for 1 hr measured up to 5 mins post dose by open field test (reference value: 27 +/- 6 )
Type: organism-based
Measurement Setup: in vivo
Reported Property: Activity

FC(F)(F)c1nc(-n2cccc2)nc2c1CCc1ccccc1-2	23
CC(C(=O)O)c1cccc(C(=O)c2ccccc2)c1 (stereo not given) [KETOPROFEN]	38
FC(F)(F)c1nc(-c2ccccc2)nc2c1CCc1ccccc1-2	25
CSc1nc2c(c(C(F)(F)F)n1)CCc1ccccc1-2	23
Nc1nc2c(c(C(F)(F)F)n1)CCc1ccccc1-2	22

====

Assay Method Text: Solubility of the compound in DMSO
Assay type: physicochemical
Reported Property: solubility

FC(F)(F)c1nc(-c2ccccc2)nc2c1CCc1ccccc1-2	Soluble
Cc1nc2c(c(C(F)(F)F)n1)CCc1ccccc1-2	Insoluble
FC(F)(F)c1ncnc2c1CCc1ccccc1-2	Insoluble
FC(F)(F)c1nc(-n2cccc2)nc2c1CCc1ccccc1-2	Soluble
